Molecular target: UniProtKB P28223
Sequence (P28223 whole entry): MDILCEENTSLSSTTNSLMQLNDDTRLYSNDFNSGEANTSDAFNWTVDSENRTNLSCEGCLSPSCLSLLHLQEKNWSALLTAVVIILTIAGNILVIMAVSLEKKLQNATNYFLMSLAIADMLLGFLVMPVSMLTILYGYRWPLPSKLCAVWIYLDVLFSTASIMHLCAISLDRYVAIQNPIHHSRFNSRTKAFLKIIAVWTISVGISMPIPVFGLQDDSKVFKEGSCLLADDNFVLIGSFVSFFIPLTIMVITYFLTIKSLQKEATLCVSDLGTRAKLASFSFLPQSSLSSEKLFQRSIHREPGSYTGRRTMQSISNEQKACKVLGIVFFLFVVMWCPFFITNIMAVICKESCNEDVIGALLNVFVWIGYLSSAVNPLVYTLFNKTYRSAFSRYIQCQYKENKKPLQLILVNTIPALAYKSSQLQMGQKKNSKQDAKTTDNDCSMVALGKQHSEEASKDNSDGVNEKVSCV
Assay: 5-HT2A receptor Gαq BRET (G protein trimer dissociation);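 further: cells transfected with 5-HT2A receptor, Gαq-Rluc, Gβ3 and Gγ9-GFP, BRET read with coelenterazine 400a (5 µM) across a compound dilution series in duplicate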
Assay type: cell-based
Settings: 5-HT2A receptor, G protein pathway; read-out: Gαq BRET EC50
What log10 of EC50 was measured for each of the following?
// units: µM (pre-log); metric: EC50; scale: log10

Fc1ccc(-c2cncc(CN3CCN4c5cccc6scc(c56)CC4C3)c2)cc1 (centres unmarked) | 0.66
c1ccc(-c2cccc(CN3CCN4c5cccc6scc(c56)CC4C3)c2)cc1 (centres unmarked) | -0.85
O=C1c2ccccc2CCCN1CCCCN1CCN2c3cccc4scc(c34)CC2C1 (centres unmarked) | -0.01

Can you give me log10 of EC50 for all of these, one by one?
1. c1cc2c3c(csc3c1)CC1CN(CCCOc3ccc4c(c3)OCO4)CCN21 (centres unmarked)
2. CN(C)C(=O)N[C@H]1CC[C@H](CCN2CCN3c4cccc5scc(c45)CC3C2)CC1 (some centres unmarked)

Response:
1. -0.47
2. -0.80
